Every entry's value here was drawn from paper PMC7691360.

Below: a set of entries, each annotated with reported activity at 1 µM.
System: MDA-MB-231 cells
method.summary: MTT cytotoxicity assay against MDA-MB-231
Format: cell-based
conditions: Homo sapiens, MDAMB231, 1 µM, 48 h, read-out: Percentage of inhibition against treated concentrations
Give the quantity in %, number only.

O=c1c2ccccc2n2c3c(cccc13)N(c1cccnc1)CC2 [Compound 7s] : 88.6
Cc1cccc(C(=O)N2CCn3c4ccccc4c(=O)c4cccc2c43)n1 [Compound 7e] : 82.2
O=C(c1ccccc1C(F)(F)F)N1CCn2c3ccccc3c(=O)c3cccc1c32 [Compound 7m] : 92.1
O=C(c1cccc(C(F)(F)F)n1)N1CCn2c3ccccc3c(=O)c3cccc1c32 [Compound 7i] : 84.8

Now consider a different compound.
Challenge: Value lookup for activity at 1 µM; key = O=C(c1ccccn1)N1CCn2c3ccccc3c(=O)c3cccc1c32 [Compound 7a]
Response given: 84.4

---

Below: a set of entries, each annotated with reported activity at 1 µM.
Test system: MDA-MB-231 cells
method.summary: MTT cytotoxicity assay against MDA-MB-231
Format: cell-based
conditions: Homo sapiens, MDAMB231, 1 µM, 48 h, read-out: Percentage of inhibition against treated concentrations
Give the quantity in %, number only.

Answered examples (5):
O=C(c1cccc(F)c1)N1CCn2c3ccccc3c(=O)c3cccc1c32 [Compound 7q] : 93.5
O=C(c1ccc(O)cc1)N1CCn2c3ccccc3c(=O)c3cccc1c32 [Compound 7k] : 97.3
O=C(c1cccc(C(F)(F)F)c1)N1CCn2c3ccccc3c(=O)c3cccc1c32 [Compound 7n] : 90.6
O=C(c1ccccc1)N1CCn2c3ccccc3c(=O)c3cccc1c32 [Compound 7l] : 95.1
O=C(c1ccc(C(F)(F)F)cc1)N1CCn2c3ccccc3c(=O)c3cccc1c32 [Compound 7o] : 95

Challenge: Value lookup for activity at 1 µM; key = Cc1ccc(C(=O)N2CCn3c4ccccc4c(=O)c4cccc2c43)nc1 [Compound 7f]
Response given: 83.2

Challenge: Value lookup for activity at 1 µM; key = Cc1cccnc1C(=O)N1CCn2c3ccccc3c(=O)c3cccc1c32 [Compound 7g]
Response given: 81.6

---

Test system: MDA-MB-231 cells
method.summary: MTT cytotoxicity assay against MDA-MB-231
Assay type: cell-based
conditions: Homo sapiens, MDAMB231, 1 µM, 48 h, read-out: Percentage of inhibition against treated concentrations
measurement.label: activity at 1 µM (%)
Give the quantity in %, number only.

Answered examples (3):
COc1cccc2c1C(=O)c1c(O)c3c(c(O)c1C2=O)C[C@@](O)(C(=O)CO)C[C@@H]3O[C@H]1C[C@H](N)[C@H](O)[C@H](C)O1 [Doxorubicin, reference compound] : 93.7
O=C(c1cccnc1)N1CCn2c3ccccc3c(=O)c3cccc1c32 : 86.2
O=c1c2ccccc2n2c3c(cccc13)N(c1nccs1)CC2 : 87.9

Challenge: Value lookup for activity at 1 µM; key = O=C(c1ccc(F)cc1)N1CCn2c3ccccc3c(=O)c3cccc1c32
Response given: 96.3

Challenge: Value lookup for activity at 1 µM; key = O=C(c1ccccc1F)N1CCn2c3ccccc3c(=O)c3cccc1c32
Response given: 89.8

Challenge: Value lookup for activity at 1 µM; key = O=C(CC1CC1)N1CCn2c3ccccc3c(=O)c3cccc1c32
Response given: 85.2

Challenge: Value lookup for activity at 1 µM; key = O=C(c1ccsc1)N1CCn2c3ccccc3c(=O)c3cccc1c32
Response given: 82.6

Challenge: Value lookup for activity at 1 µM; key = O=C(c1ccncc1)N1CCn2c3ccccc3c(=O)c3cccc1c32
Response given: 86.8

---

Tested on: HT29 cells
method.summary: MTT cytotoxicity assay against HT29
Format: cell-based
conditions: Homo sapiens, HT-29, HT29, 10 µM, 48 h, read-out: Percentage of inhibition against treated concentrations
param class (str): category from activity at 10 µM; see ranges bin A = under 50%, bin B = from 50% up to 70%, bin C = 70% and over

Example cases with answers are listed next.
O=C(c1ccc(O)cc1)N1CCn2c3ccccc3c(=O)c3cccc1c32 [Compound 7k] : bin C
Cc1cccnc1C(=O)N1CCn2c3ccccc3c(=O)c3cccc1c32 [Compound 7g] : bin A
O=c1c2ccccc2n2c3c(cccc13)N(c1cccnc1)CC2 [Compound 7s] : bin A

Challenge: Which band does O=C(c1cccnc1)N1CCn2c3ccccc3c(=O)c3cccc1c32 [Compound 7b] fall in?
Response given: bin B

Challenge: Which band does COc1cccc2c1C(=O)c1c(O)c3c(c(O)c1C2=O)C[C@@](O)(C(=O)CO)C[C@@H]3O[C@H]1C[C@H](N)[C@H](O)[C@H](C)O1 [Doxorubicin, reference compound] fall in?
Response given: bin C

Challenge: Which band does O=C(c1ccc(F)cc1)N1CCn2c3ccccc3c(=O)c3cccc1c32 [Compound 7r] fall in?
Response given: bin B

Challenge: Which band does O=C(c1cccc(C(F)(F)F)c1)N1CCn2c3ccccc3c(=O)c3cccc1c32 [Compound 7n] fall in?
Response given: bin C

Challenge: Which band does O=C(c1ccncc1)N1CCn2c3ccccc3c(=O)c3cccc1c32 [Compound 7c] fall in?
Response given: bin B

Challenge: Which band does O=C(c1ccccn1)N1CCn2c3ccccc3c(=O)c3cccc1c32 [Compound 7a] fall in?
Response given: bin A

Challenge: Which band does O=C(c1cccc(C(F)(F)F)n1)N1CCn2c3ccccc3c(=O)c3cccc1c32 [Compound 7i] fall in?
Response given: bin A

---

measurement.label: melting point

Answered examples (2):
O=C(c1ccccc1)N1CCn2c3ccccc3c(=O)c3cccc1c32 : 253 to 255 °C
O=C(c1cccnc1)N1CCn2c3ccccc3c(=O)c3cccc1c32 : 231 to 233 °C

Now consider a different compound.
Challenge: Value lookup for melting point; key = Cc1cccnc1C(=O)N1CCn2c3ccccc3c(=O)c3cccc1c32
Response given: 221 to 223 °C

---

Tested on: HT29 cells
method.summary: MTT cytotoxicity assay against HT29
Format: cell-based
conditions: Homo sapiens, HT-29, HT29, 1 µM, 48 h, read-out: Percentage of inhibition against treated concentrations
measurement.label: activity at 1 µM (%)
Give the quantity in %, number only.

Answered examples (2):
O=c1c2ccccc2n2c3c(cccc13)N(c1cccnc1)CC2 : 84.8
O=C(c1ccccc1C(F)(F)F)N1CCn2c3ccccc3c(=O)c3cccc1c32 : 92.7

Now consider a different compound.
Challenge: Value lookup for activity at 1 µM; key = O=C(c1ccccn1)N1CCn2c3ccccc3c(=O)c3cccc1c32
Response given: 78.9

---

Tested on: HT29 cells
method.summary: MTT cytotoxicity assay against HT29
Type: cell-based
conditions: Homo sapiens, HT-29, HT29, 1 µM, 48 h, read-out: Percentage of inhibition against treated concentrations
Description: Anticancer activity of 7a–s has been evaluated by MTT [3-(4,5-dimethylthiazol-2-yl)-2,5-diphenyl-tetrazolium bromide] assay and the cell lines HT29 (ATCC: HTB-38), MDA-MB-231 (ATCC: HTB-26), HEK293T (ATCC: CRL-3216) were procured from American type cell culture collection (ATCC), Manassas, USA and other chemicals were procured from Sigma-Aldrich. Then absorbance (used as a measure of cell proliferation) was measured at 570 nm with a kinetic micro-plate reader (BioTek, Winooski, Vermont). […]
Decision: activity at 1 µM compared against 90%; not below it gives T, below it gives F.

Cc1cccnc1C(=O)N1CCn2c3ccccc3c(=O)c3cccc1c32 [Compound 7g] : F
Cc1cccc(C(=O)N2CCn3c4ccccc4c(=O)c4cccc2c43)n1 [Compound 7e] : F
COc1cccc2c1C(=O)c1c(O)c3c(c(O)c1C2=O)C[C@@](O)(C(=O)CO)C[C@@H]3O[C@H]1C[C@H](N)[C@H](O)[C@H](C)O1 [Doxorubicin, reference compound] : T

Challenge: Assess whether reported activity at 1 µM for O=C(c1ccc(C(F)(F)F)cc1)N1CCn2c3ccccc3c(=O)c3cccc1c32 [Compound 7o] sits at 90% or higher.
Response given: T

---

Test system: HT29 cells
method.summary: MTT cytotoxicity assay against HT29
Format: cell-based
conditions: Homo sapiens, HT-29, HT29, 10 µM, 48 h, read-out: Percentage of inhibition against treated concentrations
Below: a set of entries, each annotated with reported activity at 10 µM.
Give the quantity in %, number only.

Answered examples (2):
O=C(c1ccccc1)N1CCn2c3ccccc3c(=O)c3cccc1c32 : 76.7
O=c1c2ccccc2n2c3c(cccc13)N(c1nccs1)CC2 : 51.5

Challenge: Value lookup for activity at 10 µM; key = O=C(c1ccccc1F)N1CCn2c3ccccc3c(=O)c3cccc1c32
Response given: 65.8

---

Below: a set of entries, each annotated with reported activity at 25 µM.
Tested on: HT29 cells
method.summary: MTT cytotoxicity assay against HT29
Assay type: cell-based
conditions: Homo sapiens, HT-29, HT29, 25 µM, 48 h, read-out: Percentage of inhibition against treated concentrations
Give the quantity in %, number only.

O=C(c1ccncc1)N1CCn2c3ccccc3c(=O)c3cccc1c32 [Compound 7c] : 40.4
COc1cccc2c1C(=O)c1c(O)c3c(c(O)c1C2=O)C[C@@](O)(C(=O)CO)C[C@@H]3O[C@H]1C[C@H](N)[C@H](O)[C@H](C)O1 [Doxorubicin, reference compound] : 72.6
O=c1c2ccccc2n2c3c(cccc13)N(c1cccnc1)CC2 [Compound 7s] : 27.5
O=C(c1ccccn1)N1CCn2c3ccccc3c(=O)c3cccc1c32 [Compound 7a] : 14.9
O=C(c1cccc(F)c1)N1CCn2c3ccccc3c(=O)c3cccc1c32 [Compound 7q] : 58.2
O=C(c1ccc(C(F)(F)F)cc1)N1CCn2c3ccccc3c(=O)c3cccc1c32 [Compound 7o] : 58.2
O=c1c2ccccc2n2c3c(cccc13)N(c1nccs1)CC2 [Compound 7j] : 31.1
O=C(c1ccccc1)N1CCn2c3ccccc3c(=O)c3cccc1c32 [Compound 7l] : 68.9
Cc1cccc(C(=O)N2CCn3c4ccccc4c(=O)c4cccc2c43)n1 [Compound 7e] : 27.6
O=C(c1ccc(F)cc1)N1CCn2c3ccccc3c(=O)c3cccc1c32 [Compound 7r] : 55.3

Challenge: Value lookup for activity at 25 µM; key = O=C(c1ccsc1)N1CCn2c3ccccc3c(=O)c3cccc1c32 [Compound 7h]
Response given: 29.5

Challenge: Value lookup for activity at 25 µM; key = Cc1ccc(C(=O)N2CCn3c4ccccc4c(=O)c4cccc2c43)nc1 [Compound 7f]
Response given: 29.1

Challenge: Value lookup for activity at 25 µM; key = O=C(c1ccccc1F)N1CCn2c3ccccc3c(=O)c3cccc1c32 [Compound 7p]
Response given: 54.1

Challenge: Value lookup for activity at 25 µM; key = O=C(c1cccc(C(F)(F)F)c1)N1CCn2c3ccccc3c(=O)c3cccc1c32 [Compound 7n]
Response given: 59.3

Challenge: Value lookup for activity at 25 µM; key = O=C(CC1CC1)N1CCn2c3ccccc3c(=O)c3cccc1c32 [Compound 7d]
Response given: 29.7

Challenge: Value lookup for activity at 25 µM; key = O=C(c1cccc(C(F)(F)F)n1)N1CCn2c3ccccc3c(=O)c3cccc1c32 [Compound 7i]
Response given: 25.8

Challenge: Value lookup for activity at 25 µM; key = O=C(c1cccnc1)N1CCn2c3ccccc3c(=O)c3cccc1c32 [Compound 7b]
Response given: 38.1

Challenge: Value lookup for activity at 25 µM; key = O=C(c1ccccc1C(F)(F)F)N1CCn2c3ccccc3c(=O)c3cccc1c32 [Compound 7m]
Response given: 57.3

Challenge: Value lookup for activity at 25 µM; key = Cc1cccnc1C(=O)N1CCn2c3ccccc3c(=O)c3cccc1c32 [Compound 7g]
Response given: 25.5

Challenge: Value lookup for activity at 25 µM; key = O=C(c1ccc(O)cc1)N1CCn2c3ccccc3c(=O)c3cccc1c32 [Compound 7k]
Response given: 66.2
